property label: melting point (°C)
Record the value in °C, omitting the unit from your answer.

Cc1ccc(C(=O)O)c(C)c1: 125
O=C(Nc1ccc(N=Nc2ccc(N=Nc3ccc(NC(=O)c4ccccc4)cc3)cc2)cc1)c1ccccc1: 336
O=C(CBr)c1cc(C(=O)CBr)cc(C(=O)CBr)c1: 111
CCOC(=O)C1=Nc2cc3c(cc2=C1OC(C)=O)C(OC(C)=O)=C(C(=O)OCC)N=3: 178

What value of melting point has been reported for the following molecule? `CCOC(=O)/C(=N\Nc1cc(Cl)ccc1Cl)C(=O)C(F)(F)F`
146

// lookup melting point for `CCOC(=O)c1[nH]c(C)c(C(=O)OCC)c1C`
137

Recorded melting point for CCOC(=O)CCCOc1ccccc1NC(=O)c1ccc2c(c1)CC1(CCC(c3ccc(C(C)(C)C)cc3)CC1)C2 (stereo unspecified) , please?
112

Returns the measured melting point for the input molecule. Input: `O=C(c1ccc(O)c(O)c1)c1c(O)cc(O)cc1O`
222

What does the data say about its melting point? Entry: `CC(C)c1cc(C(C)C)c(S(=O)(=O)n2cncn2)c(C(C)C)c1`
111

Fill in the blank: the reported melting point of `CC(C)C1=C(O)C(=O)C2=C(C1=O)[C@@H]1O[C@@H]1[C@H]1C(C)(C)CCC[C@]21C` is ____.
202

* * *

Binary label based on melting point with cut-off 100 °C: below gives YES, not below gives NO.

CCN(CC)CCc1c[nH]c2ccccc12: NO
COC(=O)c1cc(C)[nH]n1: YES

Item Cc1ncc([N+](=O)[O-])n1CC(C)O (configuration not stated) : melting point beneath 100 °C, strictly?
YES

Hello, is melting point of the following molecule strictly smaller than 100 °C? `Cc1nn(C)c(OCC(=O)c2ccccc2)c1C(=O)c1ccc(Cl)cc1Cl`
NO

Could you please tell me whether melting point recorded for `Oc1ccc(Cl)c(C(F)(F)F)c1` is less than 100 °C?
YES

* * *

Mark Not fulfilled for melting point values under 100 °C, and Fulfilled for everything at or above.

Oc1ccc(Br)c2cccnc12: Fulfilled
Cc1cc(Cl)ccc1N=CN(C)C: Not fulfilled
CC1C(=O)C23C(O)CC4C(C)(C)CCC(O)C4(C)C2C(O)CC1C3O (stereo not drawn): Fulfilled
COc1cc(-c2ccc(N=C=O)c(OC)c2)ccc1N=C=O: Fulfilled
Nc1ccccc1C=Cc1cc(/C=C/c2ccccc2)c(N)cc1N: Fulfilled
Nc1ccc2c(c1)OCCO2: Not fulfilled
Cc1ccc2nc3c(ccc4ccccc43)c(C)c2c1: Fulfilled
C#CCCCCCCCCC: Not fulfilled

Here's the next entry for you.
Item `Brc1cccc2cc(C=NNc3ccccc3)ccc12` with melting point of 100 °C or above?
Fulfilled

* * *

property label: melting point (°C)
Hi! Could you send only the number? It should be in °C, unit omitted.

Reference set (4 entries):
COc1ccc(/C=C2\CCCC3=C2NC(=S)NC3c2ccc(OC)cc2)cc1 (configuration not stated): 184
CCCCCCCCCCCCCCCBr: 19
CC1=C(C(=O)OCc2ccccc2)C(c2ccco2)NC(=S)N1 (configuration not stated): 164
CC(C)[C@@H](C)CC[C@@H](C)[C@H]1CC[C@H]2C3=CC[C@H]4C[C@@H](O)CC[C@]4(C)[C@H]3CC[C@]12C: 146

Find the recorded melting point belonging to `CCOC(=O)c1sc(N)nc1C(F)(F)F` and report it.
186

Query: melting point; subject: `CCCCc1c(C)nc(N)nc1Cl`
162

Dear colleague, I am looking for the recorded melting point of the following compound: `NCCc1cccc(CCO)c1`
264

May I ask what melting point has been recorded for `C#CC(C)(C)N` ?
18

Name the recorded melting point for `CCCCCCCC(=O)NO` .
78.8

What does the data say about its melting point? Entry: `Clc1ccc(C(Cl)(Cl)Cl)cc1Cl`
25.8

Requested field: melting point. Item: `Cc1nc2ccccc2n1CCc1n[nH]c(=S)o1`
209

* * *

property label: melting point (°C)
Field: numeric (°C). Do not append units.

Example results:
CC(C)c1cc(Oc2ccccc2)cc(C(C)C)c1NC(=S)NC(C)(C)C: 146
c1ccc(-c2sc(-c3ccccc3)c(-c3ccccc3)c2-c2ccccc2)cc1: 182
Cc1cc(Cl)[nH]n1: 118

If you can, please state the reported melting point value of `FC(F)(F)C1(F)C(F)(F)C(F)(F)C(F)(F)C(F)(F)C1(F)F` .
-37

* * *

property label: melting point (°C)
Number in °C, nothing else.

CCOC(=O)c1cc(C)n(Cc2ccccc2)n1: 37

Item under review: `c1ccc2nnccc2c1` . Reported melting point?
38

Tell me the measured melting point of `O=C1CN(N=Cc2ccc(-c3ccc([N+](=O)[O-])cc3)o2)C(=O)N1` , please.
280

* * *

Use 100 °C as the dividing line for melting point, with the line itself on the True side and lower values as False.

CC(=O)CCc1cc2c(c([N+](=O)[O-])c1)CCC(C)N2C(=O)c1ccc([N+](=O)[O-])cc1 (stereo not given): True
CC(C)Oc1cccc(NC(=O)c2ccccc2C(F)(F)F)c1: True
Ic1cccc(I)c1I: True
CCCCOc1ccc(CC(=O)NO)cc1: True
CN(C)c1ccc2nc3ccc(=O)cc-3sc2c1: True
NC(=O)c1ccc(F)c(C(F)(F)F)c1: False

With those in mind, consider the next compound.
Has `CCCCCCCCCCCCCCCCCC(=O)OCCCCCCCCCCCCCCCC` a recorded melting point greater than or equal to 100 °C?
False

* * *

// reported melting point per item
# unit: °C | format: bare number

Please review the entries below; each comes with its answer.
CCC1CCC(C)C1 (stereo unspecified): -108
CCCCCCCCCCCCCC(=O)Oc1ccc(N=Cc2cccnc2)cc1: 82.7

Can you look up the measured melting point of CC1=CC(O)c2ccccc21 (stereo unspecified) for me?
69

Record request: melting point value, item `CN1CCN(C(=O)CC(c2ccc(Cl)cc2)(c2ccc(Cl)cc2)c2ccc(Cl)cc2)CC1`
214

* * *

Mark 1 only when melting point stays strictly below 200 °C. Values equal to the cut-off are -1.

O=C(c1cccs1)c1noc(-c2cccc3ccccc23)c1S(=O)(=O)c1ccccc1: 1
Cc1ccsc1C=CC1=NCCCN1C: -1
CCCCCCCOc1ccc(O)cc1: 1
CCCOC(=O)c1ccccc1: 1

Threshold test, melting point < 200 °C: `Cc1ccc(-n2c(C=Cc3ccc([N+](=O)[O-])cc3)nc3cc([N+](=O)[O-])ccc32)cc1`
-1

Check if melting point falls below 200 °C for `O=[N+]([O-])c1ccc2c(O)c(-c3cccc(-c4[nH]c5cc([N+](=O)[O-])ccc5c4O)c3)[nH]c2c1` .
-1

melting point strictly < 200 °C for this compound? CC1=CCC(C(C)(C)O)CC1 (centres undefined)
1

Is it true that melting point reported for `CC(=O)C=Cc1ccc(Cl)cc1` is less than 200 °C?
1

In the record for `C1CCC(P(CP(C2CCCCC2)C2CCCCC2)C2CCCCC2)CC1` , is melting point less than 200 °C?
1

Is the reported melting point for `FC(F)(F)c1cc(P(c2cc(C(F)(F)F)cc(C(F)(F)F)c2)c2cc(C(F)(F)F)cc(C(F)(F)F)c2)cc(C(F)(F)F)c1` strictly below 200 °C?
1

# check: melting point < 200 °C for `Sc1nc2cc3c(cc2[nH]1)OCCO3`
-1

* * *

Reported melting point is given for each of the following compounds.
Answer with a number only, understood to be in °C.

Examples with their reported melting point follow.
O=C1Cc2ccc3ccccc3c21: 97
O=C(Nc1ccc(Cl)cc1C(O)c1ccccc1)c1ccncc1 (configuration not stated): 211
CC(C(=O)O)P(=O)(O)O (configuration not stated): 120
CC(C)CS(=O)(=O)CC(C)C: 17

Please find the next compound below.
For the compound shown here, `COc1ccc(-c2csc(/C(C#N)=C/c3ccccc3Cl)n2)cc1` , give the reported melting point.
222

* * *

property label: melting point (°C)
Respond numerically; units are °C and should not be typed.

CC(O)Cn1c(=O)c2c(ncn2C)n(C)c1=O (stereo not given): 141
Clc1c(Cl)c(Cl)c2c(c1Cl)Oc1c(Cl)c(Cl)c(Cl)c(Cl)c1O2: 330

# ---- query compound ----
Fill in the blank: the reported melting point of `FC(F)(F)C(F)(F)C(F)(F)N(C(F)(F)C(F)(F)C(F)(F)F)C(F)(F)C(F)(F)C(F)(F)F` is ____.
-52

* * *

Threshold check on melting point: strictly below 80 °C is Met; on or above 80 °C is Not met.

Please review the entries below; each comes with its answer.
O=C(OC(Cl)(Cl)Cl)C(Cl)(Cl)Cl: Met
CCn1c(C)nc2ccccc21: Met
COc1ccc2c(=O)c(C)c(-c3ccccc3)oc2c1CN(C)C: Not met
Cc1cccc(O)n1: Not met

Bench note: check whether `N#CC(C#N)=C1C(=O)NN(c2ccccc2)C1=O` shows melting point below 80 °C
Not met

Is the reported melting point for `O=C(O)C=CC(=O)Nc1cccc(Cl)c1` strictly below 80 °C?
Not met
